Molecular target: AChE (Rattus norvegicus, UniProt P37136)
Construct: Frontal cortex (brain dissected on ice) was homogenized in sodium phosphate buffer; from tissue; host or cells: rat frontal cortex homogenate
Sequence (P37136 32-614): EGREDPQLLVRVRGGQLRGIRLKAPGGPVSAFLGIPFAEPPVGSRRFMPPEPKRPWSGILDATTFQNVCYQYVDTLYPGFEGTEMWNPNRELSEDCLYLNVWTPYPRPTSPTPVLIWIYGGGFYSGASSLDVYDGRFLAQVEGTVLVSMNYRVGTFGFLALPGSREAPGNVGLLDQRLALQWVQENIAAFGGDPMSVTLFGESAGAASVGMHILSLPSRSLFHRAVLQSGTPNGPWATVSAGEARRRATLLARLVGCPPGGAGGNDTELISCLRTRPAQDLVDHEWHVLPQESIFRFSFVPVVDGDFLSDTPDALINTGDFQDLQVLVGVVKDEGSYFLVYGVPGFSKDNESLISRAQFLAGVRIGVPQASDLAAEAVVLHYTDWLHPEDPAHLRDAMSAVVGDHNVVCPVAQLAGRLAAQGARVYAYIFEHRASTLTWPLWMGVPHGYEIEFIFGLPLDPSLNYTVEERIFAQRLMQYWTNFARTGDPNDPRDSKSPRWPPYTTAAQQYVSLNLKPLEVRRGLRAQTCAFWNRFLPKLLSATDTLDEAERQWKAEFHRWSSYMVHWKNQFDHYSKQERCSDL
Assay: biochemical
pIC50: −log10 of the molar value. Where a name gives a salt, the structure may show the parent alone.
OUTCOME_MEASURE: pIC50

Entry under review: CCCCNC1CCCc2[nH]c(=O)ccc21 (racemic) [(±)-16, bis-Hydrochloride, reference compound] . Reported pIC50?
~3.30

----------
molecular target: AChE (Rattus norvegicus, UniProt P37136); construct: Frontal cortex (brain dissected on ice) was homogenized in sodium phosphate buffer; from tissue; host or cells: rat frontal cortex homogenate; assay: biochemical; conditions: Table II; rat cortex homogenate, in the presence of ethopropazine as a specific BChE inhibitor; drugs assayed as hydrochloride or fumaric acid salts; read-out: AchE IC50
Counter-ions that a name gives are not always drawn.
OUTCOME_MEASURE: log10(IC50) (log10 of the value in µM)
A difference of one corresponds to tenfold IC50; all values are log10 with IC50 in µM.

Entry under review: CC1(C)Cc2[nH]c(=O)ccc2C(NCCCCCCCCCCNC2CC(C)(C)Cc3[nH]c(=O)ccc32)C1 (racemic) [rac-lmeso-14g] . Reported log10(IC50)?
0.79

Entry under review: CC1(C)Cc2[nH]c(=O)ccc2C(NCCCCCCCCCNC2CC(C)(C)Cc3[nH]c(=O)ccc32)C1 (racemic) [rac-lmeso-14f] . Reported log10(IC50)?
1.07

Entry under review: COc1ccc2c(n1)CCCC2NCCCCCCCCCCNC1CCCc2nc(OC)ccc21 (racemic) [rac-lmeso-17g] . Reported log10(IC50)?
0.66

Entry under review: O=c1ccc2c([nH]1)CCCC2NCCCCNC1CCCc2[nH]c(=O)ccc21 (racemic) [rac-lmeso-13a] . Reported log10(IC50)?
1.63

Entry under review: CC1(C)Cc2[nH]c(=O)ccc2C(NCCCCCCCCCCCCNC2CC(C)(C)Cc3[nH]c(=O)ccc32)C1 (racemic) [rac-lmeso-14i] . Reported log10(IC50)?
0.56

Entry under review: Cn1c2c(ccc1=O)C(NCCCCCCCCCCNC1CCCc3c1ccc(=O)n3C)CCC2 (racemic) [rac-lmeso-15g] . Reported log10(IC50)?
-0.36

Entry under review: O=c1ccc2c([nH]1)CCCC2NCCCCCCCCCNC1CCCc2[nH]c(=O)ccc21 (racemic) [rac-lmeso-13f] . Reported log10(IC50)?
-0.45

Entry under review: O=c1ccc2c([nH]1)CCCC2NCCCCCNC1CCCc2[nH]c(=O)ccc21 (racemic) [rac-lmeso-13b] . Reported log10(IC50)?
1.02

Entry under review: CC1(C)Cc2[nH]c(=O)ccc2C(NCCCCCCCNC2CC(C)(C)Cc3[nH]c(=O)ccc32)C1 (racemic) [rac-lmeso-14d] . Reported log10(IC50)?
1.26

Entry under review: COc1ccc2c(n1)CCCC2NCCCCCCCCCCCCNC1CCCc2nc(OC)ccc21 (racemic) [rac-lmeso-17i] . Reported log10(IC50)?
0.70

Entry under review: O=c1ccc2c([nH]1)CCCC2NCCCCCCNC1CCCc2[nH]c(=O)ccc21 (racemic) [rac-lmeso-13c] . Reported log10(IC50)?
0.58

Entry under review: CC1(NCCCCCCCCCCNC2(C)CCCc3[nH]c(=O)ccc32)CCCc2[nH]c(=O)ccc21 (racemic) [rac-lmeso-19g] . Reported log10(IC50)?
0.27

Entry under review: O=c1ccc2c([nH]1)CCCC2NCCCCCCCNC1CCCc2[nH]c(=O)ccc21 (racemic) [rac-lmeso-13d, bis-Hydrochloride Salt] . Reported log10(IC50)?
0.09

Entry under review: O=c1ccc2c([nH]1)CCCC2NCCCCCCCCNC1CCCc2[nH]c(=O)ccc21 (racemic) [rac-lmeso-13e] . Reported log10(IC50)?
0.07
